Biological target: T1, CRBN, Q96SW2;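 also: pooled lentiviral library of zinc finger degron-EGFP fusions in mCherry-positive Jurkat cells, FACS-sorted after compound exposure, with degron abundance counted by next-generation sequencing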
T1 chain: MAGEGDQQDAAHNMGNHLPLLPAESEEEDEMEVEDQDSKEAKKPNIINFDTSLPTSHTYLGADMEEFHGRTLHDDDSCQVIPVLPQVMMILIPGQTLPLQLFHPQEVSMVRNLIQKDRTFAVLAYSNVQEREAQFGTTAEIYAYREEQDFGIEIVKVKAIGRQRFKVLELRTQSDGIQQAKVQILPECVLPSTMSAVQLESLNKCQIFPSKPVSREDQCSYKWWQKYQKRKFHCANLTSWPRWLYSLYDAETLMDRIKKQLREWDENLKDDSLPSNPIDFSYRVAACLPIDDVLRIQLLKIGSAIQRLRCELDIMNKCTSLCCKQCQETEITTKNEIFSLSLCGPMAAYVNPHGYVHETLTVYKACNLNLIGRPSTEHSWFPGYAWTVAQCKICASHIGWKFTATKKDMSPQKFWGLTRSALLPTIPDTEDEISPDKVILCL
Assay: log2 fold change of degron read counts, EGFP-low vs EGFP+ sorted cells (limma voom), compound-induced degradation; higher = more compound-induced degradation of the degron-EGFP fusion; degrons are variants of IKZF1/3 zinc finger 2; compound dose not given here
Conditions: Jurkat; 18 h; compound: compound 19 (5-tert-butyl-thalidomide)
The full ranking holds about 8,300 sequences; the median of “log2 fold change of degron read counts, EGFP-low vs EGFP+ sorted cells (limma voom), compound-induced degradation” is about -1.1, and the highest 2% start at about 3.2. This is one part of a sample in which the highest values are shown more often than they occur.
measured_endpoint: log2 fold change of degron read counts
Give only the figure.

Give its log2 fold change of degron read counts value. Item: FDCDVCGARFTQKGNLLRHIKL [46F_47D_49D_50V_52G_53A_54R_55F_67L_, Q9UKT9] 0.864

Give its log2 fold change of degron read counts value. Item: FWCPICGHQFTQKGNLLRHIKL [46F_47W_49P_50I_52G_53H_54Q_55F_67L_, Q9UKT9] -1.19

Give its log2 fold change of degron read counts value. Item: FLCDVCGALFTQKGNLLRHIKL [46F_47L_49D_50V_52G_53A_54L_55F_67L_, Q9UKT9] -2.27

Give its log2 fold change of degron read counts value. Item: FHCDVCGARFTQKGNLLRHIKL [46F_47H_49D_50V_52G_53A_54R_55F_67L_, Q9UKT9] 0.448

Give its log2 fold change of degron read counts value. Item: FLCDVCGARFTQKGNLLRHIKL [46F_47L_49D_50V_52G_53A_54R_55F_67L_, Q9UKT9] -1.59

Give its log2 fold change of degron read counts value. Item: FDCNQCGHNFTQKGNLLRHIKL [46F_47D_49N_50Q_52G_53H_54N_55F_67L_, Q9UKT9] -2.11

Give its log2 fold change of degron read counts value. Item: FFCDVCGARFTQKGNLLRHIKL [46F_47F_49D_50V_52G_53A_54R_55F_67L_, Q9UKT9] 3.5
